Provenance of the data: patent US20240217978A1

IC50, human adenosine A2a receptor (Homo sapiens (Human), UniProt P29274), per-entry values.
Quantity: IC50 (nM)

Example results:
{"Compound": "Nc1nc(N2CCC[C@H]2C(=O)N2CCC3(CC2)CN(CC(F)(F)F)C3)nc2nc(-c3ccco3)nn12", "Unit": "nM", "Measured Result": 30}
{"Compound": "Nc1nc(N2CCC[C@H]2C(=O)N2CCN(c3ccc(F)cc3F)CC2)nc2nc(-c3ccco3)nn12", "Unit": "nM", "Measured Result": 1.43}
{"Compound": "CCCCCN1CCN(C(=O)[C@@H]2CCCN2c2nc(N)n3nc(-c4ccco4)nc3n2)CC1", "Unit": "nM", "Measured Result": 2}
{"Compound": "Nc1nc(N2CCC[C@H]2C(=O)N2CCN(C3CC4CCC3C4)CC2)nc2nc(-c3ccco3)nn12 (some centres unmarked)", "Unit": "nM", "Measured Result": 12}

A: CC(C)[C@H](Nc1nc(N)n2nc(-c3ccco3)nc2n1)C(=O)N1CCN(C(=O)CC(C)(C)O)CC1
B: CC(F)(F)CN1CCN(C(=O)[C@@H]2CCCN2c2nc(N)c3nc(-c4ccco4)sc3n2)CC1
[Q] Among A and B , whose measured IC50 is the smaller figure? Use the label to indicate which entry you chose.
[A] B

P: Cc1ccc(-c2nc3nc(N4CC[C@H]4C(=O)N4CCN(C(=O)CC(C)(C)O)CC4)nc(N)n3n2)o1
Q: C[C@H](Nc1nc(N)n2nc(-c3ccco3)nc2n1)C(=O)N1CCN(CC(F)F)CC1
[Q] Among P and Q , whose measured IC50 is the smaller figure? Use the label to indicate which entry you chose.
[A] P

1: COc1ccc(NC(=O)N2CCN(C(=O)[C@@H]3CCCN3c3nc(N)n4nc(-c5ccco5)nc4n3)CC2)cc1
2: Nc1nc(N2CCC[C@H]2C(=O)N2CCN(CC(F)(F)C(F)(F)F)CC2)nc2nc(-c3ccco3)nn12
[Q] Pick one: 1 or 2 . Which has the bigger IC50 number? Use the label to indicate which entry you chose.
[A] 2

a: CC(C)(CN1CCN(C(=O)[C@@H]2CCCN2c2nc(N)n3nc(-c4ccco4)nc3n2)CC1)C(F)(F)F
b: Nc1nc(N2CCC[C@H]2C(=O)N2CCN(Cc3ccccc3)CC2)nc2nc(-c3nccs3)nn12
[Q] Among a and b , whose measured IC50 is the smaller figure? Use the label to indicate which entry you chose.
[A] a

* * *

pIC50: −log10 of the molar value.
pIC50, human adenosine A2a receptor (Homo sapiens (Human)), per-entry values.
Quantity: pIC50

Example results:
{"Molecule Smiles": "CC(F)(F)CN1CCC(C2CCN(C(=O)[C@@H]3CCN3c3nc(N)n4nc(-c5ccco5)nc4n3)CC2)CC1", "pIC50": 8.30}
{"Molecule Smiles": "Nc1nc(N2CCC[C@H]2C(=O)N2CCN(C3CC3)CC2)nc2nc(-c3ccco3)nn12", "pIC50": 7.55}

P: CCC(F)(CC)CN1CCN(C(=O)[C@@H]2CCCN2c2nc(N)n3nc(-c4ccco4)nc3n2)CC1
Q: Nc1nc(N2CCC[C@@H]2C(=O)N2CCN(Cc3ccc(F)cc3F)CC2)nc2nc(-c3ccco3)nn12
[Q] Among P and Q , whose measured pIC50 is the smaller figure? Use the label to indicate which entry you chose.
[A] Q
(Q: 5.79, P: 7.96)

* * *

System: human adenosine A2a receptor (Homo sapiens (Human))
Assay Explanation: A2a receptor binding affinity, [3H]-NECA radioligand binding test
Particulars: [3H]-NECA 37 nM; membrane from HEK-293 cells transfected with human adenosine A2a receptor
pIC50: −log10 of the molar value.
Quantity: pIC50

{"Molecule Smiles": "CC(F)(F)CN1CCC(C2CCN(C(=O)[C@@H]3CCCN3c3nc(N)n4nc(-c5ccco5)nc4n3)CC2)CC1", "System": "human adenosine A2a receptor (Homo sapiens (Human))", "pIC50": 8.52}

1: Nc1nc(N2CCC[C@H]2C(=O)N2CCC(C3CCN(CC(F)F)CC3)CC2)cc2nc(-c3ccco3)nn12
2: Nc1nc(N2CCC[C@H]2C(=O)N2CCN(C(=O)C3(C(F)(F)F)CCCC3)CC2)nc2nc(-c3ccco3)nn12
[Q] Pick one: 1 or 2 . Which has the bigger pIC50 number? Use the label to indicate which entry you chose.
[A] 2

* * *

IC50, human adenosine A2a receptor (Homo sapiens (Human), UniProt P29274), per-entry values.
Quantity: IC50 (nM)

{"Molecule Smiles": "Nc1nc(N2CCC[C@H]2C(=O)N2CCN(CC(F)(F)C(F)(F)C(F)(F)F)CC2)nc2nc(-c3ccco3)nn12", "Unit": "nM", "Measured Result": 2}

I: Nc1nc(N2CCC[C@H]2C(=O)N2CCN(CC(F)F)CC23CC3)nc2nc(-c3ccco3)nn12
II: C[C@H](Nc1nc(N)n2nc(-c3ccco3)nc2n1)C(=O)N1CCC2(CC1)CN(Cc1ccc(F)cc1F)C2
III: CN(C(=O)C1CCN(C(=O)[C@@H]2CCCN2c2nc(N)n3nc(-c4ccco4)nc3n2)CC1)c1ccccc1
[Q] Would you mind ranking these molecules by ascending IC50? Give your ranking as a list of the labels in the requested order.
[A] II, III, I
(II: 1 nM, III: 11 nM, I: 28 nM)

* * *

System: human adenosine A2a receptor (Homo sapiens (Human), UniProt P29274)
Sequence (P29274 whole entry): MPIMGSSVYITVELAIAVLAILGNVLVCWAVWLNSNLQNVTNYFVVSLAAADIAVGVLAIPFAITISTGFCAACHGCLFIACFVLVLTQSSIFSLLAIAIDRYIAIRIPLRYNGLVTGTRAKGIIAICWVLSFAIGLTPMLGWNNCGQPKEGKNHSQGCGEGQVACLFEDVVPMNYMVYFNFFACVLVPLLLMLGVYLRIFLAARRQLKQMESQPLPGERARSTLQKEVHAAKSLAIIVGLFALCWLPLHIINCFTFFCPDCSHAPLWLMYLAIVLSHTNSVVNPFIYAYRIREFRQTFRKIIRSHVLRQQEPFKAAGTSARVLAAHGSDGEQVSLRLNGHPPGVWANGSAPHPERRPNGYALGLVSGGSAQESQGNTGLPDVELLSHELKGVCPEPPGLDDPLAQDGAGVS
Assay Explanation: A2a receptor binding affinity, [3H]-NECA radioligand binding test
Particulars: [3H]-NECA 37 nM; membrane from HEK-293 cells transfected with human adenosine A2a receptor
pIC50: −log10 of the molar value.
Quantity: pIC50

{"Molecule": "COC[C@H](Nc1nc(N)n2nc(-c3ccco3)nc2n1)C(=O)N1CCN(CC(F)F)CC1", "pIC50": 7.54}

1: Nc1nc(N2CCC[C@H]2C(=O)N2CC(COc3ccccc3)C2)nc2nc(-c3ccco3)nn12
2: Nc1nc(N2CCC[C@@H]2C(=O)N2CCN(C(=O)c3ccccc3)CC2)nc2nc(-c3ccco3)nn12
3: CC1CN(C(=O)[C@@H]2CCCN2c2nc(N)n3nc(-c4ccco4)nc3n2)CC(C)N1Cc1ccc(F)cc1F (stereo partly drawn)
4: Nc1nc(N[C@@H](Cc2ccccc2)C(=O)N2CCC(Cc3ccccc3)CC2)nc2nc(-c3ccco3)nn12
[Q] // sort entries: pIC50, high to low Give your ranking as a list of the labels in the requested order.
[A] 4, 3, 1, 2

A: Nc1nc(N2CCC[C@H]2C(=O)N2CCN(S(=O)(=O)CC3CC3)CC2)nc2nc(-c3ccco3)nn12
B: Nc1nc(N2CCC[C@H]2C(=O)N2CCCN(CC(F)(F)F)CC2)nc2nc(-c3ccco3)nn12
C: Cc1ccc(-c2nc3nc(N4CC[C@H]4C(=O)N4CCN(C5CCCCC5)CC4)nc(N)n3n2)o1
D: CCOC(=O)c1ccc(N2CCN(C(=O)[C@@H]3CCCN3c3nc(N)n4nc(-c5ccco5)nc4n3)CC2)cc1
E: Nc1nc(N[C@H](C(=O)N2CCN(c3ccc(F)cc3F)CC2)C2CCC2)nc2nc(-c3ccco3)nn12
[Q] // sort entries: pIC50, high to low Give your ranking as a list of the labels in the requested order.
[A] E, D, C, A, B

a: Nc1nc(N2CCC[C@H]2C(=O)N2CCN(C3CCC(F)(F)CC3)CC2)nc2nc(-c3ccco3)nn12
b: Nc1nc(N[C@@H](CN2CCOCC2)C(=O)N2CCN(c3ccc(F)cc3F)CC2)nc2nc(-c3ccco3)nn12
c: CC1(C)C[C@@H](C(=O)N2CCN(CC(F)(F)F)CC2)N(c2nc(N)n3nc(-c4ccco4)nc3n2)C1
[Q] // sort entries: pIC50, high to low Give your ranking as a list of the labels in the requested order.
[A] c, a, b

* * *

IC50, human adenosine A2a receptor (Homo sapiens (Human), UniProt P29274), per-entry values.
Quantity: IC50 (nM)

{"Molecule Smiles": "COCCN1CCN(C(=O)[C@@H](Nc2nc(N)n3nc(-c4ccco4)nc3n2)C2CCCCC2)CC1", "IC50, nM": 10}
{"Molecule Smiles": "CCCCN1CCN(C(=O)[C@@H]2CCN2c2nc(N)n3nc(-c4ccco4)nc3n2)CC1", "IC50, nM": 8}
{"Molecule Smiles": "CC(C)(O)CC(=O)N1CCC(C2CCN(C(=O)[C@@H]3CCCN3c3nc(N)n4nc(-c5ccco5)nc4n3)CC2)CC1", "IC50, nM": 2}
{"Molecule Smiles": "Nc1nc(N2CCC[C@H]2C(=O)N2CC3CCC(C2)N3CC(F)(F)F)nc2nc(-c3ccco3)nn12", "IC50, nM": 13}
{"Molecule Smiles": "Cc1ccc(-c2nc3nc(N4CCC[C@H]4C(=O)N4CCN(CC(F)F)CC4)nc(N)n3n2)o1", "IC50, nM": 15}

a: CCC(F)(F)CN1CCN(C(=O)[C@@H]2CCCN2c2cc3nc(-c4ccco4)nn3c(N)n2)CC1
b: Nc1nc(N2CCC[C@H]2C(=O)N2CCCN(c3ccc(F)cc3F)CC2)nc2nc(-c3ccco3)nn12
[Q] Pick one: a or b . Which has the bigger IC50 number? Use the label to indicate which entry you chose.
[A] b
(b: 7 nM, a: 1 nM)
